System: 1A9
assay.comment: Tested in vitro for cytotoxic activity against Human ovarian cancer (IA9) cell line
Type: functional
readout: ED50 (µg/mL)
Report the figure in µg/mL without appending any unit label.

INSERT INTO assay_data (molecule, unit_of_measure, reported_value) VALUES
  ('COc1ccc(C2NC(=O)c3ccccc3N2)cc1 (configuration not stated)', 'µg/mL', 20);

*Q* // fetch ED50; item: `COc1cccc(-c2nc(O)c3cc(N4CCCCC4)ccc3n2)c1` ; system: 1A9
*A* 0.9

*Q* // fetch ED50; item: COc1cccc(C2NC(=O)c3ccccc3N2)c1 (configuration not stated) ; system: 1A9
*A* 1

*Q* // fetch ED50; item: `COc1cccc(-c2nc(O)c3cc(N4CCC(C)CC4)ccc3n2)c1` ; system: 1A9
*A* 0.8

*Q* // fetch ED50; item: COc1cccc(C2NC(=O)c3cc(Cl)ccc3N2)c1 (configuration not stated) ; system: 1A9
*A* 0.27

*Q* // fetch ED50; item: `COc1cccc(-c2nc(O)c3cc(OC)ccc3n2)c1` ; system: 1A9
*A* 3.4

*Q* // fetch ED50; item: `COc1cccc(-c2nc(O)c3cc(N4CCOCC4)ccc3n2)c1` ; system: 1A9
*A* 3.8

====

Tested on: KB
assay.comment: Tested in vitro for cytotoxic activity against P-glycoprotein-expressing epidermoid carcinoma of the nasopharynx(KB-VIN) cell line
Format: functional, Homo sapiens
Criterion: ED50 strictly less than 2 µg/mL. Met: met. Not met: not met.

Worked examples follow.
INSERT INTO results (compound, study_system, class_name) VALUES
  ('COc1cccc(-c2nc(O)c3cc(N4CCC(C)CC4)ccc3n2)c1', 'KB', 'not met'),
  ('COc1ccc(-c2nc(O)c3ccccc3n2)cc1OC', 'KB', 'not met');

*Q* For `COc1cccc(-c2nc(O)c3cc(N(C)C)ccc3n2)c1` , is the recorded ED50 below the cut-off of 2 µg/mL?
*A* met

*Q* For COc1ccc(C2NC(=O)c3ccccc3N2)cc1 (stereo unspecified) , is the recorded ED50 below the cut-off of 2 µg/mL?
*A* not met

====

Listed below: IC50 values for each entry.
study.system: Tubulin (Bos taurus, UniProt Q6B856+Q862L2+Q862F3)
assay.comment: Inhibition of bovine tubulin polymerization
Assay type: functional
Report the figure in µM without appending any unit label.

Worked cases, answers included:
INSERT INTO measurements (molecule, reported_value) VALUES
  ('COc1cccc(C2NC(=O)c3cc(Cl)ccc3N2)c1 (configuration not stated)', 1.5),
  ('COc1cccc(C2NC(=O)c3ccccc3N2)c1 (configuration not stated)', 5.6);

*Q* Consider the molecule `COc1cccc(-c2cc(O)c3cc(N4CCCC4)ccc3n2)c1` and give its recorded IC50.
*A* 0.32

====

Listed below: ED50 values for each entry.
System: A549
Type: functional, Homo sapiens
Description: Tested in vitro for cytotoxic activity against lung carcinoma (A-549) cell line
Report the figure in µg/mL without appending any unit label.

INSERT INTO measurements (smiles_repr, study_system, reported_value) VALUES
  ('COc1cccc(-c2nc(O)c3cc(N4CCC(C)CC4)ccc3n2)c1', 'A549', 6);

*Q* Consider the compound `COc1cccc(-c2nc(O)c3cc(N4CCCCC4)ccc3n2)c1` and give its recorded ED50.
*A* 2.8

====

Listed below: log10 ED50 values for each entry.
System: MCF7
assay.comment: Tested in vitro for cytotoxic activity against breast cancer (MCF-7) cell line
Assay type: functional, Homo sapiens
For clarity, the numbers are log10 values of ED50 expressed in µg/mL.

INSERT INTO assay_data (compound, readout, reported_value) VALUES
  ('COc1cccc(-c2nc(O)c3cc(OC)c(OC)cc3n2)c1', 'log10 ED50', 1.08),
  ('COc1cccc(-c2nc(O)c3cc(N4CCCC4)ccc3n2)c1', 'log10 ED50', -0.66),
  ('COc1cccc(-c2nc(O)c3cc(N4CCCCC4)ccc3n2)c1', 'log10 ED50', 0.93),
  ('COc1cccc(-c2nc(O)c3cc(OC)ccc3n2)c1', 'log10 ED50', 0.90),
  ('COc1cccc(-c2nc(O)c3cc(N(C)C)ccc3n2)c1', 'log10 ED50', -0.07),
  ('COc1cccc(-c2nc(O)c3ccccc3n2)c1', 'log10 ED50', 1.41),
  ('COc1cccc(-c2nc(O)c3cc(N4CCC(C)CC4)ccc3n2)c1', 'log10 ED50', 1.00),
  ('COc1cccc(C2NC(=O)c3cc(Cl)ccc3N2)c1 (stereo unspecified)', 'log10 ED50', 1.20);

*Q* Consider the compound `COc1cccc(-c2nc(O)c3cc(N4CCOCC4)ccc3n2)c1` and give its recorded log10 ED50.
*A* 0.65

*Q* Consider the compound `COc1cccc(-c2nc(O)c3ccccc3n2)c1OC` and give its recorded log10 ED50.
*A* 1.30

*Q* Consider the compound COc1ccc(C2NC(=O)c3ccccc3N2)cc1OC (stereo unspecified) and give its recorded log10 ED50.
*A* 1.30

====

Listed below: ED50 values for each entry.
System: A549
Format: functional, Homo sapiens

INSERT INTO measurements (compound, reported_value) VALUES
  ('COc1cccc(-c2nc(O)c3cc(N4CCCC4)ccc3n2)c1', '0.5 µg/mL');

*Q* Consider the compound `COc1cccc(-c2nc(O)c3cc(N(C)C)ccc3n2)c1` and give its recorded ED50.
*A* 14 µg/mL

*Q* Consider the compound COc1ccc(C2NC(=O)c3ccccc3N2)cc1OC (stereo not drawn) and give its recorded ED50.
*A* > 20 µg/mL

*Q* Consider the compound COc1ccc(C2NC(=O)c3ccccc3N2)c(OC)c1 (stereo not drawn) and give its recorded ED50.
*A* > 20 µg/mL

*Q* Consider the compound `COc1cccc(-c2nc(O)c3ccccc3n2)c1` and give its recorded ED50.
*A* > 20 µg/mL

*Q* Consider the compound `COc1ccc(-c2nc(O)c3ccccc3n2)cc1OC` and give its recorded ED50.
*A* > 20 µg/mL

*Q* Consider the compound `COc1ccc(OC)c(-c2nc(O)c3ccccc3n2)c1` and give its recorded ED50.
*A* > 20 µg/mL

====

study.system: Tubulin (Bos taurus, UniProt Q6B856+Q862L2+Q862F3)
assay.comment: Inhibition of bovine tubulin polymerization
Format: functional
Listed below: IC50 values for each entry.
Report the figure in µM without appending any unit label.

INSERT INTO measurements (molecule, readout, reported_value) VALUES
  ('COc1ccc(OC)c(C2NC(=O)c3ccccc3N2)c1 (stereo not drawn)', 'IC50', 32);

Below: the item to evaluate.
*Q* Consider the molecule COc1cc(OC)cc(C2NC(=O)c3ccccc3N2)c1 (stereo not drawn) and give its recorded IC50.
*A* 12

====

Listed below: ED50 values for each entry.
System: 1A9
assay.comment: Tested in vitro for cytotoxic activity against Human ovarian cancer (IA9) cell line
Assay type: functional
Report the figure in µg/mL without appending any unit label.

Worked cases, answers included:
INSERT INTO measurements (compound, reported_value) VALUES
  ('COc1cccc(-c2nc(O)c3cc(N(C)C)ccc3n2)c1', 0.49),
  ('COc1cccc(-c2nc(O)c3cc(N4CCCC4)ccc3n2)c1', 0.09);

*Q* Consider the compound COc1ccc(OC)c(C2NC(=O)c3ccccc3N2)c1 (centres undefined) and give its recorded ED50.
*A* 10

====

Listed below: log10 of ED50 values for each entry.
System: KB
assay.comment: Tested in vitro for cytotoxic activity against P-glycoprotein-expressing epidermoid carcinoma of the nasopharynx(KB-VIN) cell line
Format: functional, Homo sapiens
For clarity, the numbers are log10 values of ED50 expressed in µg/mL.

Worked cases, answers included:
INSERT INTO assay_data (compound, study_system, readout, reported_value) VALUES
  ('COc1cccc(C2NC(=O)c3ccccc3N2)c1 (configuration not stated)', 'KB', 'log10 of ED50', 0.08),
  ('COc1ccccc1C1NC(=O)c2ccccc2N1 (configuration not stated)', 'KB', 'log10 of ED50', 1.01),
  ('COc1ccc(C2NC(=O)c3ccccc3N2)c(OC)c1 (configuration not stated)', 'KB', 'log10 of ED50', 0.88),
  ('COc1cccc(C2NC(=O)c3cc(Cl)ccc3N2)c1 (configuration not stated)', 'KB', 'log10 of ED50', -0.38),
  ('COc1cc(OC)cc(C2NC(=O)c3ccccc3N2)c1 (configuration not stated)', 'KB', 'log10 of ED50', 0.20);

Below: the item to evaluate.
*Q* // fetch log10 of ED50; item: COc1cccc(C2NC(=O)c3ccccc3N2)c1OC (configuration not stated) ; system: KB
*A* 0.93

====

study.system: Tubulin (Bos taurus, UniProt Q6B856+Q862L2+Q862F3)
assay.comment: Inhibition of bovine tubulin polymerization
Type: functional
readout: IC50

INSERT INTO results (molecule, study_system, reported_value) VALUES
  ('COc1cccc(C2NC(=O)c3ccccc3N2)c1OC (centres undefined)', 'Tubulin (Bos taurus, UniProt Q6B856+Q862L2+Q862F3)', '> 40 µM'),
  ('COc1ccc(C2NC(=O)c3ccccc3N2)cc1 (centres undefined)', 'Tubulin (Bos taurus, UniProt Q6B856+Q862L2+Q862F3)', '> 40 µM'),
  ('COc1ccccc1C1NC(=O)c2ccccc2N1 (centres undefined)', 'Tubulin (Bos taurus, UniProt Q6B856+Q862L2+Q862F3)', '> 40 µM');

Below: the item to evaluate.
*Q* Consider the molecule COc1ccc(C2NC(=O)c3ccccc3N2)cc1OC (centres undefined) and give its recorded IC50.
*A* > 40 µM
